Cited source for all entries: patent US8575178B2

target desc: rat TRPA1 (Rattus norvegicus, UniProt Q6RI86)
Sequence (Q6RI86 whole entry): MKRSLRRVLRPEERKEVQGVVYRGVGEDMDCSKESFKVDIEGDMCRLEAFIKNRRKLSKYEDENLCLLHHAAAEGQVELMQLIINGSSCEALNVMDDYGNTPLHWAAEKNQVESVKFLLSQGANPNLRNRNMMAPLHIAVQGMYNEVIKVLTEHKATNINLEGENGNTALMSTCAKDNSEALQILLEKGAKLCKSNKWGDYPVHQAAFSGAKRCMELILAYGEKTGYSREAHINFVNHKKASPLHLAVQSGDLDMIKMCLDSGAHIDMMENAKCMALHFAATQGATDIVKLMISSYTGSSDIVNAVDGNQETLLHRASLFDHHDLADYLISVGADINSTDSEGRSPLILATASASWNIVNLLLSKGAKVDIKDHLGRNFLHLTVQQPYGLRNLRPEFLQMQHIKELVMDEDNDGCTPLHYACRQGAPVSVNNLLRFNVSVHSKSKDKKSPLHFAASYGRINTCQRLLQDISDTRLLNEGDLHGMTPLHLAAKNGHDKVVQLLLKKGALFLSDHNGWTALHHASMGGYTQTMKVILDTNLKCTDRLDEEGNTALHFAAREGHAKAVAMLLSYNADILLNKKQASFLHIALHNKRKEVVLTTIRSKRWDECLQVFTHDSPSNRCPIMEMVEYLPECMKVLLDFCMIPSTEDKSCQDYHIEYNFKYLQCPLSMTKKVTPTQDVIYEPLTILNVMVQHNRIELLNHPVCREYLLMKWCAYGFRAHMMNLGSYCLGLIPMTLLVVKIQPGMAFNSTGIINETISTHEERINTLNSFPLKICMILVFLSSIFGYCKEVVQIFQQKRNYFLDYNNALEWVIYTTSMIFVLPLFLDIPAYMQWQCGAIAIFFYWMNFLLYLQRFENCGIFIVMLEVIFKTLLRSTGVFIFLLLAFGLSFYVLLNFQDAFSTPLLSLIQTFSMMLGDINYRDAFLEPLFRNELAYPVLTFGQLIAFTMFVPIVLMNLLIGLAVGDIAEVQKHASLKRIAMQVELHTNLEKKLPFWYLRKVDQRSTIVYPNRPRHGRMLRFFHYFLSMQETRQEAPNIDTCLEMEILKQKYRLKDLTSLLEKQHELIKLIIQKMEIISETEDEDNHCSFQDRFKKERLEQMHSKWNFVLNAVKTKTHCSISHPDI
test protocol: 45Calcium uptake assay, inhibition of AITC induced calcium uptake in rat TRPA1 expressing CHO cells
assay conditions: AITC 10 μM
pIC50: −log10 of the molar value.
result type: pIC50

Here is how some molecules turned out for pIC50.
{"molecule": "Cn1c(=O)c2c(CC(=O)Nc3nc(-c4ccc(Cl)cc4)cs3)nsc2n(C)c1=O [Example 12]", "pIC50": "< 7.00"}
{"molecule": "Cn1c(=O)c2c(CC(=O)Nc3nc(-c4ccc(F)c(C(F)(F)F)c4)cs3)nsc2n(C)c1=O [Example 20]", "pIC50": "> 7.30"}
{"molecule": "Cn1c(=O)c2c(CC(=O)Nc3nc(-c4cccc(C(F)(F)F)c4F)cs3)nsc2n(C)c1=O [Example 23]", "pIC50": "> 7.30"}
{"molecule": "Cn1c(=O)c2c(CC(=O)Nc3nc(-c4ccc(F)c(C(F)(F)F)c4F)cs3)nsc2n(C)c1=O [Example 37]", "pIC50": "> 7.30"}
{"molecule": "Cn1c(=O)c2c(CC(=O)Nc3nc(-c4ccc(C(F)(F)F)c(F)c4)cs3)nsc2n(C)c1=O [Example 19]", "pIC50": "> 7.30"}
{"molecule": "Cn1c(=O)c2c(CC(=O)Nc3nc(-c4ccc(OC(F)(F)F)c(F)c4)cs3)snc2n(C)c1=O [Example 7]", "pIC50": "< 7.00"}

Specify reported pIC50 for the molecule shown: Cn1c(=O)c2c(CC(=O)Nc3nc(-c4ccc(OC(F)(F)F)c(F)c4)cs3)nsc2n(C)c1=O [Example 25]
7.00 to 7.30

Output measured pIC50 for this item: Cn1c(=O)c2c(CC(=O)Nc3nc(-c4ccc(Cl)c(C(F)(F)F)c4)cs3)nsc2n(C)c1=O [Example 29]
> 7.30

---

target desc: rat TRPA1 (Rattus norvegicus, UniProt Q6RI86)
Construct: expressed in transfected cells; host or cells: CHO cells (Zeocin selection)
test protocol: 45Calcium uptake assay, inhibition of AITC induced calcium uptake in rat TRPA1 expressing CHO cells
Assay type: cell-based
assay conditions: 1.0 μM compound, AITC 10 μM, read-out: rat TRPA1 Percentage inhibition at 1.0 μM
result type: inhibition at 1 µM
// unit must come after the numeric part

{"compound": "Cn1c(=O)c2c(CC(=O)Nc3nc(-c4ccc(Cl)c(Cl)c4)cs3)nsc2n(C)c1=O [Example 26]", "target desc": "rat TRPA1 (Rattus norvegicus, UniProt Q6RI86)", "inhibition at 1 µM": "97.7%"}

// Input: Cn1c(=O)c2c(CC(=O)Nc3nc(-c4cc(F)cc(C(F)(F)F)c4)cs3)nsc2n(C)c1=O [Example 22] . Output its inhibition at 1 µM only.
98.3%

Please give the documented inhibition at 1 µM of Cn1c(=O)c2c(CC(=O)Nc3nc(-c4cccc(C(F)(F)F)c4F)cs3)snc2n(C)c1=O [Example 5]
95.6%

Please supply the value of reported inhibition at 1 µM for the item Cn1c(=O)c2c(CC(=O)Nc3nc(-c4ccc(Cl)cc4)cs3)snc2n(C)c1=O [Example 2]
34.9%

---

target desc: human TRPA1 (Homo sapiens, UniProt O75762)
Construct: expressed in transfected cells; host or cells: CHO cells (G-418 selection)
Sequence (O75762 whole entry): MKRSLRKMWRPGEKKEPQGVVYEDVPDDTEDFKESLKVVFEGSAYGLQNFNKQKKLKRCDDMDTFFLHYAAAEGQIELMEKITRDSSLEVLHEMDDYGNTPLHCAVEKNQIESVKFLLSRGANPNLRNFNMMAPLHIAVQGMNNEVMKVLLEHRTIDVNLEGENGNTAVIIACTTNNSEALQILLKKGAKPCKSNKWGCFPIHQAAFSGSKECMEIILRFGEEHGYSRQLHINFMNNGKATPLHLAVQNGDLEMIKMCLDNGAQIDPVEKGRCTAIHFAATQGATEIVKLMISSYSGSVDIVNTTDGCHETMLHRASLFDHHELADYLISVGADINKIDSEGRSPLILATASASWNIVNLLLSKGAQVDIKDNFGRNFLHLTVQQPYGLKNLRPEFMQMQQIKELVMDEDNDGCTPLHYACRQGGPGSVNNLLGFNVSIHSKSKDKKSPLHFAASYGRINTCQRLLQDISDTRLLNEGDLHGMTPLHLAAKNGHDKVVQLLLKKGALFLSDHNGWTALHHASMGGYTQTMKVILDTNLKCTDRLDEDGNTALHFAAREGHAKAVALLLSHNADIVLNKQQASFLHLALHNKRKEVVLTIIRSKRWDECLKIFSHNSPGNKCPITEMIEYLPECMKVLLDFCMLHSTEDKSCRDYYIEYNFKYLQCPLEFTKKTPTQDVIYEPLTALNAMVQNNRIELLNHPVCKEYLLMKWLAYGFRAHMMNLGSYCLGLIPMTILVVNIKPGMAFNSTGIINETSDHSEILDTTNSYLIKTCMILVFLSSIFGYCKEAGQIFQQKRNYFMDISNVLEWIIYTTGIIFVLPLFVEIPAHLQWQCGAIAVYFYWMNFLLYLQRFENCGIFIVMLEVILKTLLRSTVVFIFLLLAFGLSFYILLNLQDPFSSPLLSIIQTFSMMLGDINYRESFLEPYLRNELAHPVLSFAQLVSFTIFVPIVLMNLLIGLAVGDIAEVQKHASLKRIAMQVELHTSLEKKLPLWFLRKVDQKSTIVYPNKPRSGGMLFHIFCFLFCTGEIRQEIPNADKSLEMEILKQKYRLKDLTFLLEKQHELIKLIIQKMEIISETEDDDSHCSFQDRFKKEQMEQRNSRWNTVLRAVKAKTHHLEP
test protocol: 45Calcium uptake assay, inhibition of AITC induced calcium uptake in human TRPA1 expressing CHO cells
Type: cell-based
assay conditions: 10.0 μM compound, AITC 30 μM, read-out: human TRPA1 Percentage inhibition at 10.0 μM
result type: inhibition at 10 µM (%)
// units = %; emit number, no label

For `Cn1c(=O)c2c(CC(=O)Nc3nc(-c4ccc(Cl)c(C(F)(F)F)c4)cs3)snc2n(C)c1=O` , write its inhibition at 10 µM.
99.6

---

target desc: rat TRPA1 (Rattus norvegicus)
Construct: expressed in transfected cells; host or cells: CHO cells (Zeocin selection)
test protocol: 45Calcium uptake assay, inhibition of AITC induced calcium uptake in rat TRPA1 expressing CHO cells
Assay type: cell-based
assay conditions: 1.0 μM compound, AITC 10 μM, read-out: rat TRPA1 Percentage inhibition at 1.0 μM
result type: inhibition at 1 µM (%)
Could you give me the number in %? Just the number is fine.

Sample answers from the record:
{"compound": "Cn1c(=O)c2c(CC(=O)Nc3nc(-c4ccc(F)c(C(F)(F)F)c4F)cs3)snc2n(C)c1=O [Example 9]", "inhibition at 1 µM / %": 94.7}
{"compound": "Cn1c(=O)c2c(CC(=O)Nc3ccn(-c4ccc(Br)cc4)n3)snc2n(C)c1=O [Example 11]", "inhibition at 1 µM / %": 22.9}
{"compound": "Cn1c(=O)c2c(CC(=O)Nc3nc(-c4ccc(Cl)c(C(F)(F)F)c4)cs3)snc2n(C)c1=O [Example 6]", "inhibition at 1 µM / %": 97.3}
{"compound": "Cn1c(=O)c2c(CC(=O)Nc3nc(-c4cc(F)c(C(F)(F)F)c(F)c4)cs3)nsc2n(C)c1=O [Example 38]", "inhibition at 1 µM / %": 100}
{"compound": "Cn1c(=O)c2c(CC(=O)Nc3nc(-c4ccc(OC(F)(F)F)c(F)c4)cs3)nsc2n(C)c1=O [Example 25]", "inhibition at 1 µM / %": 98.8}

Indicate the recorded inhibition at 1 µM value for this compound: Cn1c(=O)c2c(CC(=O)Nc3nc(-c4ccc(F)cc4F)cs3)nsc2n(C)c1=O [Example 28]
92.8

Please give measured inhibition at 1 µM of the following entry: Cn1c(=O)c2c(CC(=O)Nc3nc(-c4ccc(Cl)cc4)cs3)nsc2n(C)c1=O [Example 12]
94.6

Dear colleague, please send me the reported inhibition at 1 µM for Cn1c(=O)c2c(CC(=O)Nc3nc(-c4ccc(F)c(OC(F)(F)F)c4)cs3)snc2n(C)c1=O [Example 3] when you can.
68.5

Please report inhibition at 1 µM for the following compound: Cn1c(=O)c2c(CC(=O)Nc3nc(-c4ccc(F)c(F)c4)cs3)nsc2n(C)c1=O [Example 27]
81.8

---

target desc: human TRPA1 (Homo sapiens)
Construct: expressed in transfected cells; host or cells: CHO cells (G-418 selection)
test protocol: 45Calcium uptake assay, inhibition of AITC induced calcium uptake in human TRPA1 expressing CHO cells
Type: cell-based
assay conditions: 10.0 μM compound, AITC 30 μM, read-out: human TRPA1 Percentage inhibition at 10.0 μM
Catalogue of molecules with associated inhibition at 10 µM
Unit % implied. Number only.

Solved cases (5 shown):
{"smiles structure": "Cn1c(=O)c2c(CC(=O)Nc3nc(-c4ccc(OC(F)(F)F)c(Cl)c4)cs3)nsc2n(C)c1=O", "inhibition at 10 µM (%)": 99.7}
{"smiles structure": "Cn1c(=O)c2c(CC(=O)Nc3nc(-c4ccc(Cl)cc4)cs3)snc2n(C)c1=O", "inhibition at 10 µM (%)": 100}
{"smiles structure": "Cn1c(=O)c2c(CC(=O)Nc3nc(-c4ccc(F)c(OC(F)(F)F)c4)cs3)nsc2n(C)c1=O", "inhibition at 10 µM (%)": 100}
{"smiles structure": "Cn1c(=O)c2c(CC(=O)Nc3nc(-c4cc(F)c(C(F)(F)F)c(F)c4)cs3)nsc2n(C)c1=O", "inhibition at 10 µM (%)": 99.9}
{"smiles structure": "Cn1c(=O)c2c(CC(=O)Nc3nc(-c4cc(F)cc(C(F)(F)F)c4)cs3)nsc2n(C)c1=O", "inhibition at 10 µM (%)": 100}

Answer with the recorded inhibition at 10 µM of `Cn1c(=O)c2c(CC(=O)Nc3nc(-c4ccc(F)c(C(F)(F)F)c4F)cs3)snc2n(C)c1=O` only.
98.1

Give a short answer stating reported inhibition at 10 µM for `Cn1c(=O)c2c(CC(=O)Nc3nc(-c4ccc(Cl)c(C(F)(F)F)c4)cs3)nsc2n(C)c1=O` .
99.6

---

target desc: rat TRPA1 (Rattus norvegicus)
test protocol: 45Calcium uptake assay, inhibition of AITC induced calcium uptake in rat TRPA1 expressing CHO cells
assay conditions: AITC 10 μM
pIC50: −log10 of the molar value.
result type: pIC50

Illustrative cases are given below, each with its answer.
{"smiles structure": "Cn1c(=O)c2c(CC(=O)Nc3nc(-c4cccc(C(F)(F)F)c4)cs3)snc2n(C)c1=O", "pIC50": "< 7.00"}
{"smiles structure": "Cn1c(=O)c2c(CC(=O)Nc3nc(-c4ccc(Cl)c(C(F)(F)F)c4)cs3)snc2n(C)c1=O", "pIC50": "< 7.00"}
{"smiles structure": "Cn1c(=O)c2c(CC(=O)Nc3nc(-c4ccc(F)c(OC(F)(F)F)c4)cs3)snc2n(C)c1=O", "pIC50": "< 7.00"}
{"smiles structure": "Cn1c(=O)c2c(CC(=O)Nc3nc(-c4ccc(Cl)c(Cl)c4)cs3)nsc2n(C)c1=O", "pIC50": "< 7.00"}

Supply measured pIC50 of `Cn1c(=O)c2c(CC(=O)Nc3nc(-c4cc(F)c(C(F)(F)F)c(F)c4)cs3)nsc2n(C)c1=O` in your reply.
> 7.30

Tell me measured pIC50 for `Cn1c(=O)c2c(CC(=O)Nc3nc(-c4ccc(C(F)(F)F)cc4F)cs3)nsc2n(C)c1=O` please.
> 7.30

Quote pIC50 reported for `Cn1c(=O)c2c(CC(=O)Nc3nc(-c4ccc(F)c(OC(F)(F)F)c4)cs3)nsc2n(C)c1=O` please.
7.00 to 7.30

Provide pIC50 value for the following compound: `Cn1c(=O)c2c(CC(=O)Nc3nc(-c4ccc(F)c(F)c4)cs3)nsc2n(C)c1=O`
< 7.00

Please list pIC50 recorded for the compound `Cn1c(=O)c2c(CC(=O)Nc3nc(-c4ccc(OC(F)(F)F)c(Cl)c4)cs3)nsc2n(C)c1=O`
7.00 to 7.30
